Origin of measurements: PubChem BioAssay (NCI)

tested on: BT-549 breast; assay: NCI-60 one-dose screen, 48 h (100 = growth as untreated, 0 = no growth, -100 = all killed); conditions: 10 µM unless noted
This is part of a sample that, as a whole, favours compounds with a hit. Of some 83,000 tested, about 20% had one in any assay. The source made the active and inactive calls. How the source made its calls: active means growth percent below 10; inactive means the rest.
readout-name: growth

compound=CC1CCN(CCOc2ccc(CNc3ccc4nc(CCC5CCCCC5)[nH]c4c3)cc2)CC1 measured_value="68.4% (inactive)"
compound=CC(C)c1ccc(C(=O)Nc2nc3ccc(O)c(CN(C)C)c3s2)cc1 measured_value="73.6% (inactive)"
compound="CC1CCc2c(C(=O)Nc3ncc(Cc4cccc([N+](=O)[O-])c4)s3)csc2C1 (stereo not drawn)" measured_value="46.6% (inactive)"
compound="CCC(C)(C)C(=O)O[C@H]1C[C@@H](C)C=C2C=C[C@H](C)[C@H](CC[C@@H]3CC(SCCN)CC(=O)O3)[C@H]21 (stereo partly drawn)" measured_value="78.7% (inactive)"
compound=COc1cccc(CNc2ccc3ncnc(Nc4ccc(F)c(Cl)c4)c3c2)c1 measured_value="86.8% (inactive)"
compound=COc1ccc2c(c1OC)CO[C@@H]2[C@H]1c2c(cc3c(c2OC)OCO3)CCN1S(=O)(=O)c1cn(C)cn1 measured_value="38.2% (inactive)"
compound=CC/C(=C(/c1ccc(Cl)cc1)c1ccc(OCCN(C)C)cc1)c1ccc(Cl)cc1 measured_value="82.7% (inactive)"
compound=CCOc1ccccc1Cn1ccnc1CCc1c(Cl)c(O)cc(O)c1C(=O)OC measured_value="98.8% (inactive)"
compound=NS(=O)(=O)c1ccccc1NC(=O)Nc1nc2ccccc2s1 measured_value="98.2% (inactive)"
compound=CC(C)=CC(=O)OCC(=O)O[C@@H]1C[C@]2(C(C)C)O[C@@]1(C)[C@@H]1CC[C@@H](C)[C@H]1[C@@H]2OC(=O)/C=C/c1ccccc1 measured_value="37.7% (inactive)"
compound=O=C1C(=O)N(Cc2ccc(-c3ccccc3)cc2)c2ccc(OC(F)(F)F)cc21 measured_value="0.708% (active)"
compound=OCCn1cc(-c2nc(-c3c[nH]c4ncccc34)cs2)c2ccccc21 measured_value="76% (inactive)"
compound=O=C(/C=C(/C=C/c1ccc2[nH]ccc2c1)OB(F)F)/C=C/c1ccc2[nH]ccc2c1 measured_value="-28.2% (active)"
compound=CC/C(=C(/c1ccc(Cl)cc1)c1ccc(OCCN2CCCCC2)cc1)c1ccc(OC)cc1 measured_value="78.2% (inactive)"
compound=Nc1nc(-c2ccc(Cl)cc2)nc2c1sc(=S)n2-c1ccccc1 measured_value="54.9% (inactive)"
compound=COc1cc(OC)c(NC(=O)c2cc3ccccc3cc2O)cc1Cl measured_value="-25.9% (active)"
compound=N#Cc1nc(-c2ccc(Cl)cc2)oc1S(=O)(=O)N1CCN(c2ccc(F)cc2)CC1 measured_value="100% (inactive)"
compound=COc1ccccc1CNc1c2ccccc2nc2ccccc12 measured_value="77% (inactive)"
compound=CCc1ccc(CCCC(=O)O)cc1 measured_value="101% (inactive)"
compound=O=C(CSC(=S)n1cnnc1)NC(=O)c1ccccc1 measured_value="102% (inactive)"
compound="O=CN1N=C(c2cccc(Nc3ccnc4cc(Cl)ccc34)c2)CC1c1ccccc1 (stereo not drawn)" measured_value="35.7% (inactive)"
compound=CCCCn1c(=O)[nH]c(N)c([C@@H]2c3c([nH]c(=O)n(CCCC)c3=O)Oc3ccc4ccccc4c32)c1=O measured_value="46.9% (inactive)"
compound=COc1ccc(/C=C(\C#N)n2nnc3cc(Cl)ccc32)cc1 measured_value="-1.84% (active)"
compound=CCOC(=O)c1c(NC(=O)c2cccc(C(F)(F)F)c2)sc2c(CN(C)C)c(O)ccc12 measured_value="96.3% (inactive)"
compound=N#Cc1nc(-c2ccccc2)oc1S(=O)(=O)N1CCN(c2ccccc2)CC1 measured_value="90.8% (inactive)"
compound=C=CCn1c(SCC(=O)Nc2ccc(C(=O)/C=C/c3ccc(Cl)cc3)cc2)nnc1-c1ccc(Br)cc1 measured_value="87.4% (inactive)"
compound=Cc1ccc(-c2nc(N3CCCNCC3)c3oc(-c4ccccc4)nc3n2)cc1 measured_value="81.2% (inactive)"
compound=Cc1ccc(CNc2ccc3nc(CCC4CCCCC4)[nH]c3c2)cc1 measured_value="88% (inactive)"
compound=CCOC(=O)c1ccc2c(c1)nc(-c1ccccc1)n2C1CCCCC1 measured_value="93% (inactive)"
compound=O=C(N/N=C/c1ccc(Cl)cc1)c1[nH]c2ccc(Cl)cc2c1-c1ccccc1 measured_value="10.2% (inactive)"
compound=N#CC(C#N)N=Nc1ccc(Br)cc1 measured_value="49.2% (inactive)"
compound="COc1cc2c(c(OC)c1OC)CCC(c1cccc(C(=O)Nc3cccc(Cl)c3)c1)O2 (stereo not drawn)" measured_value="67.5% (inactive)"
compound=COC(=O)c1nc(-c2ccccc2)oc1S(=O)(=O)Cc1ccccc1 measured_value="80.1% (inactive)"
